Tested on: 885724-159-R-J1-PDC complex spheroid viability
Experiment: Anticancer human tumor 885724-159-R-J1-PDC patient-derived pancreatic adenocarcinoma cell line growth inhibition [POLQ]
Conditions: second compound 0.316 µM; first compound 0.0316 µM; stronger effect = lower value
Protocol: Multicellular complex tumor spheroid response to Polymerase (POL) inhibitors (novobiocin, ART-558, RP6685) in combination with a variety of drugs and investigational agents in selected tumor cell lines The POL inhibitors (novobiocin, ART-558, and RP6685) were evaluated both individually and in combination with standard of care and investigational anticancer small molecules within a complex spheroid model of solid tumors. . […]
Listed below: viability, T/C values for each entry.
Answer in %, number only, no unit symbol.

Solved entries (count: 2):
| compound | target_desc | value_unit | viability, T/C |
| --- | --- | --- | --- |
| CCc1cc2c(N3CCc4c(cc(Cn5ccnc5)cc4-c4cn(C)nc4C(F)(F)F)C3=O)cc(C)nc2c(OC)n1 + COC1C(OC(N)=O)C(O)C(Oc2ccc3c(O)c(NC(=O)c4ccc(O)c(CC=C(C)C)c4)c(=O)oc3c2C)OC1(C)C | 885724-159-R-J1-PDC complex spheroid viability | % | 88.7 |
| CC(C)n1c(=O)n(C)c2cnc3cc(F)c(-c4ccc(OCCCN5CCCCC5)nc4)cc3c21 + Cc1cccc(N(C)C(=O)C2C(O)CCN2c2nc(C)cc(C(F)(F)F)c2C#N)c1 | 885724-159-R-J1-PDC complex spheroid viability | % | 109 |

Q: I have this compound here, CC[C@@]1(O)C(=O)OCc2c1cc1n(c2=O)Cc2cc3c(CN(C)C)c(O)ccc3nc2-1 + COC1C(OC(N)=O)C(O)C(Oc2ccc3c(O)c(NC(=O)c4ccc(O)c(CC=C(C)C)c4)c(=O)oc3c2C)OC1(C)C , and I need its recorded viability, T/C.
Result: 73.2

----------
Tested on: 885724-159-R-J1-PDC complex spheroid viability
Assay: Anticancer human tumor 885724-159-R-J1-PDC cell line growth inhibition [POLQ];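 also: spheroids exposed to compounds for 7 days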
Conditions: second compound 0.0316 µM; first compound 0.316 µM; stronger effect = lower value
Method: Multicellular complex tumor spheroid response to Polymerase (POL) inhibitors (novobiocin, ART-558, RP6685) in combination with a variety of drugs and investigational agents in selected tumor cell lines The POL inhibitors (novobiocin, ART-558, and RP6685) were evaluated both individually and in combination with standard of care and investigational anticancer small molecules within a complex spheroid model of solid tumors. . […]
assay_metric: viability, T/C (%)
State just the number; it will be interpreted in %.

| compound | observed_result |
| --- | --- |
| O=C(Nc1ccc(O)c(NS(=O)(=O)c2ccc(F)cc2)c1)c1ccc(-c2ccccc2)cc1 + COC1C(OC(N)=O)C(O)C(Oc2ccc3c(O)c(NC(=O)c4ccc(O)c(CC=C(C)C)c4)c(=O)oc3c2C)OC1(C)C | 92.7 |
| O=c1[nH]cc(F)c(=O)[nH]1 + Cc1cccc(N(C)C(=O)C2C(O)CCN2c2nc(C)cc(C(F)(F)F)c2C#N)c1 | 95.8 |
| CC1COCCN1c1cc(C2(S(C)(=N)=O)CC2)nc(-c2ccnc3[nH]ccc23)n1 (stereo not given) + Cc1cccc(N(C)C(=O)C2C(O)CCN2c2nc(C)cc(C(F)(F)F)c2C#N)c1 | 89 |
| Nc1ccn(C2OC(CO)C(O)C2(F)F)c(=O)n1 (stereo not given) + Cc1cccc(N(C)C(=O)C2C(O)CCN2c2nc(C)cc(C(F)(F)F)c2C#N)c1 | 55.2 |

Q: # query: viability, T/C of entry CCc1cc2c(N3CCc4c(cc(Cn5ccnc5)cc4-c4cn(C)nc4C(F)(F)F)C3=O)ccnc2c(OC)n1 + Nc1ccc(C#CCN(C(=O)Cc2ncc(C(F)(F)F)cc2C(F)(F)F)c2ccc(F)cc2)nn1
Result: 90.6
